From: ChEMBL document CHEMBL6120974

test: cells; details: Homo sapiens, Cal27CisR
reported metric: IC50 (µM)

CCCNNC(=O)c1ccc(CN(CC(=O)NCc2ccccc2)C(=O)c2ccc(N(C)C)cc2)cc1: 2.32

a = CCCCNNC(=O)c1ccc(CN(CC(=O)NCc2ccccc2)C(=O)c2ccc(N(C)C)cc2)cc1
b = CN(C)c1ccc(C(=O)N(CC(=O)NCc2ccccc2)Cc2ccc(C(=O)NNCC3CC3)cc2)cc1
c = CN(C)c1ccc(C(=O)N(CC(=O)NCc2ccccc2)Cc2ccc(C(=O)Nc3ccccc3N)cc2)cc1
Falling order of IC50, please. # respond with the labels, arranged in the requested order
c, a, b

----------
test: cells; details: Homo sapiens, A2780
pIC50: −log10 of the molar value.
reported metric: pIC50

Check out these entries, answers already filled in.
CN(C)c1ccc(C(=O)N(CC(=O)NCc2ccccc2)Cc2ccc(C(=O)NNCC3CC3)cc2)cc1: 6.14
CCCNNC(=O)c1ccc(CN(CC(=O)NCc2ccccc2)C(=O)c2ccc(N(C)C)cc2)cc1: 6.63
CCCCNNC(=O)c1ccc(CN(CC(=O)NCc2ccccc2)C(=O)c2ccc(N(C)C)cc2)cc1: 6.58

1 = CCCCCNNC(=O)c1ccc(CN(CC(=O)NCc2ccccc2)C(=O)c2ccc(N(C)C)cc2)cc1
2 = CN(C)c1ccc(C(=O)N(CC(=O)NCc2ccccc2)Cc2ccc(C(=O)NNCCCc3ccccc3)cc2)cc1
Given the listed records, identify the one among 1 and 2 with higher pIC50. Return value: the label identifying the chosen record.
1

----------
experiment: Solubility of the compound in PBS buffer at pH 7.4 incubated for 72 hrs by HPLC/UV analysis; assay type: physicochemical
reported metric: solubility at 72 h (µg/mL)
Reply with just the number (in µg/mL).

Recorded solubility at 72 h of CCCNNC(=O)c1ccc(CN(CC(=O)NCc2ccccc2)C(=O)c2ccc(N(C)C)cc2)cc1 , please.
16.8

----------
target: Protein deacetylase HDAC6 (Homo sapiens, UniProt Q9UBN7); test: Inhibition of N-terminal GST-tagged full length recombinant human HDAC6 (1 to 1215 end residues) expressed in sf9 cells using ZMAL (Z-Lys(Ac)-AMC as fluorogenic substrate preincubated with compound for 60 mins followed by substrate addition and measured after 90 mins by fluorescence based microplate reader analysis
Sequence (Q9UBN7 whole entry): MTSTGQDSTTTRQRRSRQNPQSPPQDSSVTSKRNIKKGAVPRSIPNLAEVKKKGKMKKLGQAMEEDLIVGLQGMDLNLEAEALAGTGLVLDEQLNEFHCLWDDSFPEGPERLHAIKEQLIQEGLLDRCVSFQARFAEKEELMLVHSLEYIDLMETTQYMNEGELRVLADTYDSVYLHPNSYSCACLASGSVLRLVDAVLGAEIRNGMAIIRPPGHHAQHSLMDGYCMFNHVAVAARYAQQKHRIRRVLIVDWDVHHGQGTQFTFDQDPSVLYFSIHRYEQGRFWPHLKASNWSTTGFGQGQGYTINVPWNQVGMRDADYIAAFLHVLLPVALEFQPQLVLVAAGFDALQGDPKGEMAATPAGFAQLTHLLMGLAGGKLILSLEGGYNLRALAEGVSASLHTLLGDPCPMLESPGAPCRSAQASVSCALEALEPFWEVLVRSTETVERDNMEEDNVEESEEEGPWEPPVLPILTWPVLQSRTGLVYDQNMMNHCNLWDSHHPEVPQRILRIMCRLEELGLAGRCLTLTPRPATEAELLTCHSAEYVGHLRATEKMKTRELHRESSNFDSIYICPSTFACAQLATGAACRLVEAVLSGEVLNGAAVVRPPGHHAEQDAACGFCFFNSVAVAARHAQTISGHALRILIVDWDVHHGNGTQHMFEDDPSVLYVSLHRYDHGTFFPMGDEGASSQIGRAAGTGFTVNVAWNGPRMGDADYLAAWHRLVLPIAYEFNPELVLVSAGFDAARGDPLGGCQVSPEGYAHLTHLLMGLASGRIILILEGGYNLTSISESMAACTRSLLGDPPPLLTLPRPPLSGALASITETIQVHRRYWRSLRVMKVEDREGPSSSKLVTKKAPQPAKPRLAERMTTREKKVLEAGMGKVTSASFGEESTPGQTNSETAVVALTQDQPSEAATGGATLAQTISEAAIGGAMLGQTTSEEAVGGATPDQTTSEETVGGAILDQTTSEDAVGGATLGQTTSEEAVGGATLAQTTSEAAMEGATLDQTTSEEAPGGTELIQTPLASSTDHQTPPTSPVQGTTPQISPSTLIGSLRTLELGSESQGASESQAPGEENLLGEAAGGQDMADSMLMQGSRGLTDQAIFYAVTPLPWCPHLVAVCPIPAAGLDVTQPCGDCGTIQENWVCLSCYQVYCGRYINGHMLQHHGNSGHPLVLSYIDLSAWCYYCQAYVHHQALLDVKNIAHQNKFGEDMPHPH
reported metric: IC50

// lookup IC50 for CCCCCNNC(=O)c1ccc(CN(CC(=O)NCc2ccccc2)C(=O)c2ccc(N(C)C)cc2)cc1
> 3.33 µM

Record request: IC50 value, item CN(C)c1ccc(C(=O)N(CC(=O)NCc2ccccc2)Cc2ccc(C(=O)NNCCCc3ccccc3)cc2)cc1
> 10 µM

Could you tell me which IC50 is on file for CN(C)c1ccc(C(=O)N(CC(=O)NCc2ccccc2)Cc2ccc(C(=O)NNCCC(F)(F)F)cc2)cc1 ?
> 10 µM

----------
assay: cells; details: Homo sapiens, A2780
reported metric: IC50 (nM)

Before answering, review these 3 worked examples.
CN(C)c1ccc(C(=O)N(CC(=O)NCc2ccccc2)Cc2ccc(C(=O)NNCCC(F)(F)F)cc2)cc1: 691
CN(C)c1ccc(C(=O)N(CC(=O)NCc2ccccc2)Cc2ccc(C(=O)Nc3ccccc3N)cc2)cc1: 1220
CN(C)c1ccc(C(=O)N(CC(=O)NCc2ccccc2)Cc2ccc(C(=O)NNc3ccccc3)cc2)cc1: 27700

I = CN(C)c1ccc(C(=O)N(CC(=O)NCc2ccccc2)Cc2ccc(C(=O)NN)cc2)cc1
II = CC(C)CCNNC(=O)c1ccc(CN(CC(=O)NCc2ccccc2)C(=O)c2ccc(N(C)C)cc2)cc1
Response body: label of entry with the larger IC50; valid values I , II . Mark your answer with the label of the selected entry.
I
(I: 33100 nM, II: 2910 nM)
